The reported numbers originate from patent US8748608B2.

target: UniProt:P35462; test: Human D2-like receptor competition binding in HEK cells, D3; settings: ratio of Ki at D2 over Ki at D3
Sequence (P35462 whole entry): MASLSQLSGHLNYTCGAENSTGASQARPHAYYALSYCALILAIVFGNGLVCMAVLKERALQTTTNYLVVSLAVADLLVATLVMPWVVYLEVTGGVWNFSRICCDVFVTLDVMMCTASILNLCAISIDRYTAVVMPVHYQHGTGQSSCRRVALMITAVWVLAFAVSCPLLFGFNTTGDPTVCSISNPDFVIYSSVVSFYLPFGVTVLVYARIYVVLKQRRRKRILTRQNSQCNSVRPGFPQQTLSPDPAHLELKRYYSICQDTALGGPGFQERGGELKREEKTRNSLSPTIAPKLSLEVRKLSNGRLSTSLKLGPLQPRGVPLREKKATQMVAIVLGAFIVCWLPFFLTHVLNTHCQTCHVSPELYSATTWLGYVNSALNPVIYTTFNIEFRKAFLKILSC
Labelling field: enter 1 if recorded D2/D3 is less than 60. Enter 0 if it equals or exceeds that cut-off.

{"columns": ["COMPOUND", "DISCRETE_LABEL"],
 "data": [
  ["COc1ccccc1N1CCN(CC(O)CCNC(=O)c2ccc3c(c2)Cc2ccccc2-3)CC1 (stereo not shown)", 0],
  ["Cc1cccnc1-c1ccc(C(=O)NC/C=C/CN2CCN(c3cccc(Cl)c3Cl)CC2)cc1", 1],
  ["COc1ccccc1N1CCN(CC(O)CCNC(=O)c2cc3ccccc3o2)CC1 (stereo not shown)", 1],
  ["O=C(NCC(O)CCN1CCN(c2cccc(Cl)c2Cl)CC1)c1ccc2c(c1)Cc1ccccc1-2 (stereo not shown)", 1]
]}

Q: Is it true that D2/D3 reported for COc1ccc2oc(C(=O)NCCC(O)CN3CCN(c4ccccc4OC)CC3)cc2c1 (stereo not shown) is less than 60?
A: 0

Q: Please give the result for O=C(NCCC(O)CN1CCN(c2cccc(Cl)c2Cl)CC1)c1ccc(-c2ccccn2)cc1 (stereo not shown) too.
A: 0

Q: Now the same for CCCOc1ccccc1N1CCN(CC(O)CCNC(=O)c2cc3ccccc3[nH]2)CC1 (stereo not shown)
A: 1
